The reported measurements were obtained from patent US20100093776A1.

- subjectOfTest: CDK7/cyclinH/MAT1 (Homo sapiens)
- Sequence (P50613 whole entry): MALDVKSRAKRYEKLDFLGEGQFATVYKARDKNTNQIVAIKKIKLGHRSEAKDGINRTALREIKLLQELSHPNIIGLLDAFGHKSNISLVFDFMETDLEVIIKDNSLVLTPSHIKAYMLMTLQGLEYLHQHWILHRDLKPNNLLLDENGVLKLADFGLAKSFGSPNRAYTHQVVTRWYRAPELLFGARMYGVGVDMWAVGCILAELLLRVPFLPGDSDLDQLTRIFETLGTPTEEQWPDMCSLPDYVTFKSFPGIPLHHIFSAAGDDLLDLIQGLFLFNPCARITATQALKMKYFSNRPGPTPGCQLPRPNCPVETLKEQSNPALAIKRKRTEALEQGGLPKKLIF
- Sequence (P51946 whole entry partner): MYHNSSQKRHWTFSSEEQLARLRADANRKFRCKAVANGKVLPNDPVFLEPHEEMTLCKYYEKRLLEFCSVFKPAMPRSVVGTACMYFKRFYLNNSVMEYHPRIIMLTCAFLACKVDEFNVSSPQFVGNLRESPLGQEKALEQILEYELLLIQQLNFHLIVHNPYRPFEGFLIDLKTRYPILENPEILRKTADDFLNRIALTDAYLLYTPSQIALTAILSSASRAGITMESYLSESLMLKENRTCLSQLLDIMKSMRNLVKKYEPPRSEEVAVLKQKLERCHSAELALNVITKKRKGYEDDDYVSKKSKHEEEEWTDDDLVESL
- Sequence (P51948 whole entry partner): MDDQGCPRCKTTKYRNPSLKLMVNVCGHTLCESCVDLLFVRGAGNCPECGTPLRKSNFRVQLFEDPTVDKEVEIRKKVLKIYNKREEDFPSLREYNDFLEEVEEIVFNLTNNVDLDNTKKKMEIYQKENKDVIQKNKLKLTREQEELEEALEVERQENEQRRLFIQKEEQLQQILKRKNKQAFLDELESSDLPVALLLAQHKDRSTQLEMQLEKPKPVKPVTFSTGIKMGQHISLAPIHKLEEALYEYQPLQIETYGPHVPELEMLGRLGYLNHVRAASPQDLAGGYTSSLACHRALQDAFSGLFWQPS
- procedureDetails: CDK7/cyclinH/Mat1 IMAP fluorescence polarization kinase assay
- measurementParameters: 8.09 μM ATP, two hours at room temperature
# IC50 annotations

Illustrative cases are given below, each with its answer.
molecule	subjectOfTest	propertyMeasured	val
CCNC(=O)Cn1ccc2c(-c3ccnc(Nc4cccc(Cl)c4)n3)cccc21 [Compound 13]	CDK7/cyclinH/MAT1 (Homo sapiens)	IC50	> 50 µM
Cc1cnc(Nc2cccc(S(C)(=O)=O)c2)nc1-c1cccc2[nH]ccc12 [Compound 31]	CDK7/cyclinH/MAT1 (Homo sapiens)	IC50	< 5 µM
CS(=O)(=O)c1cccc(Nc2nccc(-c3cccc4[nH]ccc34)n2)c1 [Compound 2]	CDK7/cyclinH/MAT1 (Homo sapiens)	IC50	< 5 µM

Next item in the queue.
[Q] # IC50 lookup, item Clc1cccc(Nc2nccc(-c3cccc4[nH]ccc34)n2)c1 [Compound 1]
[A] > 50 µM

====

- subjectOfTest: CDK5 (Homo sapiens)
- Sequence (Q00535 whole entry, species assumed): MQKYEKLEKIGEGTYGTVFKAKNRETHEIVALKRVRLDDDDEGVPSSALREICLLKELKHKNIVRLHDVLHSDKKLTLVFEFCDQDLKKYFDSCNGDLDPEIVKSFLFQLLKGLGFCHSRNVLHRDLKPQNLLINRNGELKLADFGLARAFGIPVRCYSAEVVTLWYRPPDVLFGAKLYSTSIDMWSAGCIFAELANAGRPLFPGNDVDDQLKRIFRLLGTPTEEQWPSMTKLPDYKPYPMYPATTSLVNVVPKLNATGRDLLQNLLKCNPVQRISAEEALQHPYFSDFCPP
- Sequence (Q15078 whole entry partner, species assumed): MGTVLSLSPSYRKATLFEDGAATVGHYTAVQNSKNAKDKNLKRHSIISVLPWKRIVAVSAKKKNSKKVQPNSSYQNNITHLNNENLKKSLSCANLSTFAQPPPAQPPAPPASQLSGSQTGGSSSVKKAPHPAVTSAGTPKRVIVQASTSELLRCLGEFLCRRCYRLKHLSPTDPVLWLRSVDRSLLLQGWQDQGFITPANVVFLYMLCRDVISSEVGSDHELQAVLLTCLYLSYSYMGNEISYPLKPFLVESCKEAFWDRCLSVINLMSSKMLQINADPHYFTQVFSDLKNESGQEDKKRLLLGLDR
- procedureDetails: CDK5 kinase assay (IMAP fluorescence polarization)
- Assay type: biochemical
pIC50: −log10 of the molar value.
pIC50 values by entry

Clc1cccc(Nc2nccc(-c3cccc4[nH]ccc34)n2)c1 > 5.30

Let us move to another entry and its pIC50.
[Q] Quick one: pIC50 of CS(=O)(=O)c1cccc(Nc2nccc(-c3cccc4[nH]ccc34)n2)c1 ?
[A] > 5.30

====

- subjectOfTest: CDK4 (Homo sapiens, UniProt P11802)
- Sequence (P11802 whole entry, species assumed): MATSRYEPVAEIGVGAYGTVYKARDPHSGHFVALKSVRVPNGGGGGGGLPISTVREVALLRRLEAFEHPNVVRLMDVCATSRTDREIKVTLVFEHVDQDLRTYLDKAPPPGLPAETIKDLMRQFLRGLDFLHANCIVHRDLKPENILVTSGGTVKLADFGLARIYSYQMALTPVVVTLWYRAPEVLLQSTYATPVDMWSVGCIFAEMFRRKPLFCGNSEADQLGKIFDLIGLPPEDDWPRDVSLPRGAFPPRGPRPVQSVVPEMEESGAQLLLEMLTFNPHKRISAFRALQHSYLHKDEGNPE
- Sequence (P24385 whole entry partner, species assumed): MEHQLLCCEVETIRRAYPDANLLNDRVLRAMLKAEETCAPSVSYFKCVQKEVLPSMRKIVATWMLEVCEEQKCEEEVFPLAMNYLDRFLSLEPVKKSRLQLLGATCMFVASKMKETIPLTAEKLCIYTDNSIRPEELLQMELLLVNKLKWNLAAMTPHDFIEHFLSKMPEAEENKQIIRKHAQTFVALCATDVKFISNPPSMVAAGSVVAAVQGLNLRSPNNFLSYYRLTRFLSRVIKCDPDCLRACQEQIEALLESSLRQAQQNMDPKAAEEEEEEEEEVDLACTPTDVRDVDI
pIC50: −log10 of the molar value.
propertyMeasured: pIC50

[Q] State the recorded pIC50 for this entry: Clc1cccc(Nc2nccc(-c3cccc4[nH]ccc34)n2)c1 [Compound 1]
[A] 4.82 to 5.30

====

- subjectOfTest: CDK2/cyclinA (Homo sapiens)
- procedureDetails: CDK2/cyclinA IMAP fluorescence polarization kinase assay
- measurementParameters: 4.68 μM ATP, two hours at room temperature
pIC50: −log10 of the molar value.
propertyMeasured: pIC50

Study these solved cases before continuing.
Cc1cnc(Nc2cccc(S(N)(=O)=O)c2)nc1-c1cccc2[nH]ccc12 > 5.30
O=C(O)Cn1ccc2c(-c3ccnc(Nc4cccc(Cl)c4)n3)cccc21 4.82 to 5.30
CC(C)(C)NC(=O)Cn1ccc2c(-c3ccnc(Nc4cccc(Cl)c4)n3)cccc21 > 5.30
CN(C)CCn1ccc2c(-c3ccnc(Nc4cccc(Cl)c4)n3)cccc21 > 5.30
NC1CCN(C(=O)Cn2ccc3c(-c4ccnc(Nc5cccc(Cl)c5)n4)cccc32)CC1 4.30 to 4.82
Cc1cnc(Nc2cccc(Cl)c2)nc1-c1cccc2[nH]ccc12 4.30 to 4.82
O=C(Cn1ccc2c(-c3ccnc(Nc4cccc(Cl)c4)n3)cccc21)N1CCNCC1 < 4.30

[Q] Quick one: pIC50 of Clc1cccc(Nc2nccc(-c3cccc4c3ccn4CCN3CCOCC3)n2)c1 ?
[A] 4.82 to 5.30

====

- subjectOfTest: CDK1/cyclinB (Homo sapiens, UniProt P06493)
- Sequence (P06493 whole entry): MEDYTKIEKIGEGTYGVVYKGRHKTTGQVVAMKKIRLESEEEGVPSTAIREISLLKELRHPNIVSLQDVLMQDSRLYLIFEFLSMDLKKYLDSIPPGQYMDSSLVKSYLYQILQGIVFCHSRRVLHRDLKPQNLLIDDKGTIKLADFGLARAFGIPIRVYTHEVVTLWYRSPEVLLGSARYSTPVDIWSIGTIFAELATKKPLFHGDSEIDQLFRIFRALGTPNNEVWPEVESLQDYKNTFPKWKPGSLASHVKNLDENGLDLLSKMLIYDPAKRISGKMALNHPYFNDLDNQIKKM
- Sequence (P14635 whole entry partner): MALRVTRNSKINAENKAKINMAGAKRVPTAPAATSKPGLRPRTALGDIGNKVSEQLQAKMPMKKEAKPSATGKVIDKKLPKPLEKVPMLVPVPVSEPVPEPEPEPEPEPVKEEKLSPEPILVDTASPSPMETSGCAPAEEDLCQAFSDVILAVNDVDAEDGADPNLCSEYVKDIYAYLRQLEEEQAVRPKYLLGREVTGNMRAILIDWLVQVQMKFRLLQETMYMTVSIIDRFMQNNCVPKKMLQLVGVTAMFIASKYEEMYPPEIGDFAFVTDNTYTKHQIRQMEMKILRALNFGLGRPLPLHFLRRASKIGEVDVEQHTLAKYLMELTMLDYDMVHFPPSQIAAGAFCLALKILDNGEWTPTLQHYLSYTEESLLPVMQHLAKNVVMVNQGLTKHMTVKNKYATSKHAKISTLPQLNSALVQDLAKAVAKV
- procedureDetails: CDK1/cyclinB IMAP fluorescence polarization kinase assay
- measurementParameters: 52 μM ATP, two hours at room temperature
pIC50: −log10 of the molar value.
List of pIC50 values.

Solved entries:
molecule	propertyMeasured	val
O=C(Cn1ccc2c(-c3ccnc(Nc4cccc(Cl)c4)n3)cccc21)N1CCNCC1	pIC50	< 4.30
CN(C)CCn1ccc2c(-c3ccnc(Nc4cccc(Cl)c4)n3)cccc21	pIC50	> 5.30
O=C(Cn1ccc2c(-c3ccnc(Nc4cccc(Cl)c4)n3)cccc21)NCCN1CCCC1	pIC50	4.30 to 4.82
Clc1cccc(Nc2nccc(-c3cccc4c3ccn4CCN3CCOCC3)n2)c1	pIC50	< 4.30

[Q] Query: pIC50; subject: O=C(Cn1ccc2c(-c3ccnc(Nc4cccc(Cl)c4)n3)cccc21)NCCO
[A] 4.82 to 5.30

[Q] Entry Cc1cnc(Nc2cccc(S(N)(=O)=O)c2)nc1-c1cccc2[nH]ccc12 has what pIC50?
[A] > 5.30

[Q] What pIC50 value was documented for this molecule, Clc1cccc(Nc2nccc(-c3cccc4c3ccn4Cc3ccccc3)n2)c1 ?
[A] < 4.30

[Q] For the molecule shown here, O=C(O)Cn1ccc2c(-c3ccnc(Nc4cccc(Cl)c4)n3)cccc21 , give the reported pIC50.
[A] 4.30 to 4.82

[Q] What does the data say about its pIC50? Entry: Cc1cnc(Nc2cccc(Cl)c2)nc1-c1cccc2[nH]ccc12
[A] 4.30 to 4.82

[Q] Need pIC50, item CCOC(=O)Cn1ccc2c(-c3ccnc(Nc4cccc(Cl)c4)n3)cccc21
[A] < 4.30

[Q] Data request, read-out pIC50, for Cn1ccc2c(-c3ccnc(Nc4cccc(Cl)c4)n3)cccc21
[A] 4.82 to 5.30

[Q] Please report the recorded pIC50 for CC(C)(C)NC(=O)Cn1ccc2c(-c3ccnc(Nc4cccc(Cl)c4)n3)cccc21 .
[A] > 5.30

[Q] Look at this molecule and give its reported pIC50. O=C(Cn1ccc2c(-c3ccnc(Nc4cccc(Cl)c4)n3)cccc21)NCC1CCCN1 (stereo not drawn)
[A] 4.82 to 5.30

[Q] Would you mind telling me what pIC50 value was observed for CN(C)CCCn1ccc2c(-c3ccnc(Nc4cccc(Cl)c4)n3)cccc21 ?
[A] 4.82 to 5.30

[Q] Find the recorded pIC50 belonging to NS(=O)(=O)c1cccc(Nc2ncc(F)c(-c3cccc4[nH]ccc34)n2)c1 and report it.
[A] > 5.30

[Q] Could you share which pIC50 value was measured for NC1CCN(C(=O)Cn2ccc3c(-c4ccnc(Nc5cccc(Cl)c5)n4)cccc32)CC1 ?
[A] < 4.30

[Q] Give the measured pIC50 of OCCn1ccc2c(-c3ccnc(Nc4cccc(Cl)c4)n3)cccc21 .
[A] 4.82 to 5.30
